Data origin: patent US8916551B2

ASSAY SYSTEM: AMPA receptor (human GluR1 flip/stargazin expressed in CHO-K1 cells) (Homo sapiens, UniProt P42261)
Construct: expressed in transfected cells; host or cells: CHO-K1
Sequence (P42261 19-906 isoform P42261-2 limits assumed): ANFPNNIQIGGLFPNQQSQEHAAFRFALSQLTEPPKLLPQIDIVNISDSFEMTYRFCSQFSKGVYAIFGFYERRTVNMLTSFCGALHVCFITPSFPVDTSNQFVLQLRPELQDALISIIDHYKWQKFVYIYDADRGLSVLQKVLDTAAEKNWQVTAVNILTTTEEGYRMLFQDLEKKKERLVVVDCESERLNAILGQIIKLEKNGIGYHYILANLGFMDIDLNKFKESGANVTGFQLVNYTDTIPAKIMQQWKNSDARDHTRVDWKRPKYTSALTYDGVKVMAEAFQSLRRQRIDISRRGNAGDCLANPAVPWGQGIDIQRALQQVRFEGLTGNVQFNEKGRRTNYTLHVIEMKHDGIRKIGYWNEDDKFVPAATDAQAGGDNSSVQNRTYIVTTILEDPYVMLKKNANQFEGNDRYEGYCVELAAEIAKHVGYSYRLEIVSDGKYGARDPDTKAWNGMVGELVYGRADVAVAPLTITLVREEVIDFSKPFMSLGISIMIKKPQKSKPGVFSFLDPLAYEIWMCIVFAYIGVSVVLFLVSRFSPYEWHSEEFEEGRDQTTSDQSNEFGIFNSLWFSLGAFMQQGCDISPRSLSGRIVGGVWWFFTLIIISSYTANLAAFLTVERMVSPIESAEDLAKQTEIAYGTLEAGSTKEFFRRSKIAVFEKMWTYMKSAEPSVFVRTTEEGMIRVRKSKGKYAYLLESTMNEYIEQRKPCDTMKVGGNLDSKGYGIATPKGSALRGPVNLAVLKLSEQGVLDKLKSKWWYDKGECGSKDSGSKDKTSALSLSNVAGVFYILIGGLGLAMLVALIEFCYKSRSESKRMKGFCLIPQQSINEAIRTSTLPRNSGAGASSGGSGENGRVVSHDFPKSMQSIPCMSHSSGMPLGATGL
Sequence (Q9Y698 whole entry partner): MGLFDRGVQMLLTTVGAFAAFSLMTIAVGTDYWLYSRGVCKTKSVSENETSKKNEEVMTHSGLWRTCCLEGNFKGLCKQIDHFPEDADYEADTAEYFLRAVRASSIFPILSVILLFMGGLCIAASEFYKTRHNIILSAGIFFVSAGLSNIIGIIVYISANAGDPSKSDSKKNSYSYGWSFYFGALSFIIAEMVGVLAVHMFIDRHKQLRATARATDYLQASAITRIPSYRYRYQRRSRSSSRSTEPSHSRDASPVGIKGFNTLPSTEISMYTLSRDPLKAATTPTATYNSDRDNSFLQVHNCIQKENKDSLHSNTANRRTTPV
MEASUREMENT DESCRIPTION: AMPA receptor function enhancing activity using calcium influx as index
Format: cell-based
REPORTED CONDITIONS: test compound 30 μM with glutamic acid final 3 mM, change in fluorescence in 3 min, 100% = 3 mM glutamic acid + 300 μM cyclothiazide, 0% = 3 mM glutamic acid only
Excerpt: Human GluR1 flip cDNA was amplified by PCR using forward primer […] (SEQ ID NO: 1) and reverse primer […] (SEQ ID NO: 2) artificially synthesized using human brain-derived cDNA (BD Bio science) as a template. The amplified product was digested with restriction enzymes EcoRI, NotI (TAKARA SHUZO CO. LTD.), and incorporated into the same site of pcDNA3.1(+) (Invitrogen) to construct pcDNA3.1(+)/human GluR1 flip gene. Human stargazin cDNA was amplified by PCR using forward primer […] […]
MEASURED PARAMETER: activity (%)
Express it in %; write the number only.

Request: Given the entry `Cc1cc(C(F)(F)F)ccc1Oc1ccc(C2=CC=CN3CCS(=O)(=O)N=C23)cc1` , report its measured activity (%).
Result: 71

Request: Request the reported activity (%) associated with Cc1cccc(Oc2ccc(C3CCCN4CCS(=O)(=O)N=C34)cc2)c1 (stereo not shown) [Example 118]
Result: 79

Request: What measured activity (%) goes with `CC(C)(C)Oc1ccc(C2=CC=CN3CCS(=O)(=O)N=C23)cc1` ?
Result: 86

Request: Which value of activity (%) has been reported for O=S1(=O)CCN2CCCC(c3ccc(-n4nc(C(F)(F)F)cc4C4CC4)cc3)C2=N1 (stereo not shown) in the records?
Result: 76

Request: Please give the measured activity (%) for this compound: O=S1(=O)CCN2CCCC(c3ccc(Oc4ccc(C(F)(F)F)cc4)cc3)C2=N1 (stereo not shown)
Result: 53

Request: Which value of activity (%) has been reported for Cc1cccc(Oc2ccc(C3CCCN4CCS(=O)(=O)N=C34)cc2)c1 (stereo not shown) [Example 119] in the records?
Result: 92

Request: Data request, read-out activity (%), for `O=S1(=O)CCN2C=C(Cl)C=C(c3ccc(Oc4ccccc4)cc3)C2=N1`
Result: 86

Request: Consider the compound shown here: `O=S1(=O)CCN2C=CC=C(c3ccc(OC4CCC4)cc3)C2=N1` What is its recorded activity (%)?
Result: 81

Request: Which measured activity (%) value corresponds to Cc1cc(C(F)(F)F)ccc1Oc1ccc(C2CCCN3CCS(=O)(=O)N=C23)cc1 (stereo not shown) [Example 123] ?
Result: 57

Request: Param item = O=S1(=O)CCN2CCCC(c3ccc(Oc4ccc5c(c4)OCC5)cc3)C2=N1 (stereo not shown) ; retrieve measured activity (%).
Result: 80

Request: Returns the measured activity (%) for the input compound. Input: O=S1(=O)CCN2CCCC(c3ccc(Oc4ccc(F)c(Cl)c4)cc3)C2=N1 (stereo not shown)
Result: 78

Request: Endpoint output: activity (%) of O=S1(=O)CCN2CCCC(c3ccc4c(ccn4CCc4ccc(F)cc4)c3)C2=N1 (stereo not shown) . Value?
Result: 64

Request: What does the data say about its activity (%)? Entry: `CC(F)(F)c1ccc(Oc2ccc(C3=CC=CN4CCS(=O)(=O)N=C34)cc2)cc1`
Result: 85

Request: Could you tell me which activity (%) is on file for O=S1(=O)CCN2CCCC(c3ccc(Oc4ccccc4Cl)cc3)C2=N1 (stereo not shown) ?
Result: 55

Request: Give the measured activity (%) of `O=S1(=O)CCN2C=CN=C(c3ccc(OC4CCCCC4)cc3)C2=N1` .
Result: 77

Request: Which value of activity (%) has been reported for `O=S1(=O)CCN2C=CC=C(c3ccc(Oc4ccc5c(c4)OCC5)cc3)C2=N1` in the records?
Result: 95

Request: # get_value(readout='activity (%)', item= `CC(C)c1ccc(CCC2=CC=CN3CCS(=O)(=O)N=C23)cc1` )
Result: 98

Request: # get_value(readout='activity (%)', item= `CSc1ccc(C2=CC=CN3CCS(=O)(=O)N=C23)cc1` )
Result: 85

Request: Returns the measured activity (%) for the input compound. Input: `CC(=O)c1ccc(C2=CC=CN3CCS(=O)(=O)N=C23)cc1`
Result: 83

Request: Item under review: `O=S1(=O)CCN2C=CC=C(c3ccc(Oc4ccccc4)cc3)C2=N1` . Reported activity (%)?
Result: 79

Request: Recorded activity (%) for CCCCOc1ccc(C2CCCN3CCS(=O)(=O)N=C23)cc1F (stereo not shown) , please?
Result: 76

Request: Fill blank: measured activity (%) of the compound `O=S1(=O)CCN2C=CC=C(c3ccc(OC4CC4)cc3)C2=N1` is ____.
Result: 86

Request: Which activity (%) value belongs to Cc1cc(C2CCCN3CCS(=O)(=O)N=C23)ccc1-c1ccccc1 (stereo not shown) [Example 103] ?
Result: 81

Request: Which activity (%) is reported for this compound? `O=S1(=O)CCN2C=CC=C(c3ccc(N4CCCC4)cc3)C2=N1`
Result: 88

Request: Looking for the measured activity (%) of O=C(c1ccccc1)c1ccc(C2CCCN3CCS(=O)(=O)N=C23)cc1 (stereo not shown) , can you help?
Result: 87

Request: Could you tell me which activity (%) is on file for `COc1ccc2cc(C3=CC=CN4CCS(=O)(=O)N=C34)ccc2c1` ?
Result: 72

Request: // returns reported activity (%) for input `O=C(Nc1ccc(C2CC2)cc1)C1=CC=CN2CCS(=O)(=O)N=C12`
Result: 85

Request: Need activity (%), item O=S1(=O)CCN2CCCC(c3ccc(OCc4cccc(F)c4)cc3)C2=N1 (stereo not shown)
Result: 57

Request: Which activity (%) is listed for `O=S1(=O)CCN2C=CC=C(c3ccc(-n4nc(C(F)(F)F)cc4C4CC4)cc3)C2=N1` ?
Result: 88

Request: Which activity (%) is reported for this compound? O=S1(=O)CCN2CCCC(c3ccc(-c4ccccc4)cc3)C2=N1 (stereo not shown) [Example 64]
Result: 73

Request: What value of activity (%) has been reported for the following compound? `O=S1(=O)CCN2C=CC=C(c3ccc(N4CCOCC4)cc3)C2=N1`
Result: 83

Request: # lookup: activity (%) of `CC(C)c1ccc(C(=O)NC2=CC=CN3CCS(=O)(=O)N=C23)cc1`
Result: 95

Request: Return reported activity (%); argument: `CC(C)(C)COc1ccc(C2=CC=CN3CCS(=O)(=O)N=C23)cc1`
Result: 68

Request: Which activity (%) value is on record for `CC(C)c1ccc(OCC2=CC=CN3CCS(=O)(=O)N=C23)cc1` ?
Result: 75
